# targetSystem: activated hepsin (#4776-SE-010, R&D Systems) (UniProt P05981 45-417, limits assumed)
# Sequence (P05981 45-417 limits assumed): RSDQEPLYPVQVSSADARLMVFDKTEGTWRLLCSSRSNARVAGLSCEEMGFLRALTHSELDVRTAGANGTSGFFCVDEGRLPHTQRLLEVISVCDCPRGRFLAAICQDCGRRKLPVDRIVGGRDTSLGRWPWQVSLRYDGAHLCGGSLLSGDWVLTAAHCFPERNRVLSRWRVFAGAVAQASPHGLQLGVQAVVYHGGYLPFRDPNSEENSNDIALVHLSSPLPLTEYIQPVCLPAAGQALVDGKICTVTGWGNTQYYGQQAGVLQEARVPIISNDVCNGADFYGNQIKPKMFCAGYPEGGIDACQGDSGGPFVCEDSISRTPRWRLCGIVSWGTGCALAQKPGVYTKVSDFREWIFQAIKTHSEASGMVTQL
# protocolText: cell-based or functional assay
*: point of attachment. X9 = 1‑((5-chloro-2-methoxyphenyl)sulfonyl)piperidin‑4‑yl carbamate, COc1ccc(Cl)cc1S(=O)(=O)N1CCC(OC(=O)*)CC1; X8 = 1‑((4-chlorophenyl)sulfonyl)piperidin‑4‑yl carbamate, O=C(OC1CCN(S(=O)(=O)c2ccc(Cl)cc2)CC1)*; X13 = 1‑((2-fluorophenyl)sulfonyl)piperidin‑4‑yl carbamate, O=C(OC1CCN(S(=O)(=O)c2ccccc2F)CC1)*; X5 = 1‑acetyl‑4‑phenethylpiperidin‑4‑yl carbamate, CC(=O)N1CCC(CCc2ccccc2)(OC(=O)*)CC1; X4 = 1‑(phenylsulfonyl)piperidin‑4‑yl carbamate, O=C(OC1CCN(S(=O)(=O)c2ccccc2)CC1)*; X2 = 1‑(ethylsulfonyl)piperidin‑4‑yl carbamate, CCS(=O)(=O)N1CCC(OC(=O)*)CC1; X1 = 4‑phenylpiperidin‑4‑yl carbamate, O=C(OC1(c2ccccc2)CCNCC1)*; X7 = 1‑acetylpiperidin‑4‑yl carbamate, CC(=O)N1CCC(OC(=O)*)CC1; kbt = C-terminal Arg ketobenzothiazole
measuredProperty: Hepsin IC50 (nM)
Response body: numeric value in nM, unit text excluded.

Solved entries:
X7-Leu-Arg-kbt [1-acetylpiperidin-4-yl Leu-Arg-kbt carbamate (8e)]
20
X4-Leu-Arg-kbt [1-(phenylsulfonyl)piperidin-4-yl Leu-Arg-kbt carbamate (8f)]
20
X13-Leu-Arg-kbt [1-((2-fluorophenyl)sulfonyl)piperidin-4-yl Leu-Arg-kbt carbamate (8g)]
70
X5-Leu-Arg-kbt [1-acetyl-4-phenethylpiperidin-4-yl Leu-Arg-kbt carbamate (8c)]
0.5
X9-Leu-Arg-kbt [1-((5-chloro-2-methoxyphenyl)sulfonyl)piperidin-4-yl Leu-Arg-kbt carbamate (8l)]
60
{2‑phenyl‑1‑(piperidin-4-yl)ethyl carbamate}-Leu-Arg-kbt [2-phenyl-1-(piperidin-4-yl)ethyl Leu-Arg-kbt carbamate (11b)]
2
X8-Leu-Arg-kbt [1-((4-chlorophenyl)sulfonyl)piperidin-4-yl Leu-Arg-kbt carbamate (8i)]
60
X1-Leu-Arg-kbt
5

Now consider the entry below.
Requested read-out: Hepsin IC50. Entry: X2-Leu-Arg-kbt [1-(ethylsulfonyl)piperidin-4-yl Leu-Arg-kbt carbamate (8h)]
10

Hello, the source for this data is patent US20220380407A1, in case you need it.
